src = patent US20250197905A1

This listing pairs compounds with measured CMP-Sia Yield (%).
test system: LpCLS or NmCSS, with or without PmAldolase; format: biochemical

# COMPOUND, CMP-Sia Yield (%)
measured = [
    ("[N-]=[N+]=NC1C(O)OC(CO)[C@@H](O)[C@@H]1O (some centres unmarked)", "57.6 ± 0.1%"),
    ("CC(=O)N[C@H]1[C@H]([C@@H](O)[C@@H](O)CO)O[C@@](O)(C(=O)O)C[C@@H]1O", ">99%"),
    ("O=C(O)C1(O)C[C@H](O)[C@@H](O)[C@H]([C@H](O)[C@H](O)CO)O1 (some centres unmarked)", ">99%"),
    ("CC(=O)N[C@H]1[C@@H](O)[C@H](O)[C@@H](CO)O[C@@H]1O", ">99%"),
    ("CC(=O)N[C@@H]([C@H](O)[C@H](NC(C)=O)[C@@H](O)CC(=O)C(=O)O)[C@@H](C)O", ">99%"),
]

====

system: LpCLS or NmCSS, with or without PmAldolase; format: biochemical
READOUT LABEL: CMP-Sia Yield (%)

# COMPOUND, SUBJECT OF TEST, READOUT LABEL, READOUT RELATION, MEASURED NUMBER
records = [
    ("CC(=O)N[C@@H]1C(O)O[C@H](CO)[C@@H](N=[N+]=[N-])[C@@H]1O (some centres unmarked) [ManNAc4N3]", "LpCLS or NmCSS, with or without PmAldolase", "CMP-Sia Yield (%)", "=", 84.4),
    ("CC(=O)N[C@@H]1C(O)O[C@H](CN=[N+]=[N-])[C@@H](O)[C@@H]1O (some centres unmarked) [ManNAc6N3]", "LpCLS or NmCSS, with or without PmAldolase", "CMP-Sia Yield (%)", ">", 99),
    ("C[C@@H](O)[C@@H](N=[N+]=[N-])[C@@H]1OC(O)(C(=O)O)C[C@H](O)[C@H]1N=[N+]=[N-] (some centres unmarked) [Leg5,7diN3]", "LpCLS or NmCSS, with or without PmAldolase", "CMP-Sia Yield (%)", ">", 99),
    ("CC(=O)N[C@H]1[C@H](O)[C@H](NC(C)=O)C(O)O[C@@H]1CO (some centres unmarked) [Man2,4diNAc]", "LpCLS or NmCSS, with or without PmAldolase", "CMP-Sia Yield (%)", "=", 51.5),
    ("O=C[C@@H](O)[C@@H](O)[C@H](O)[C@H](O)CO [Mannose]", "LpCLS or NmCSS, with or without PmAldolase", "CMP-Sia Yield (%)", "=", 77.7),
    ("[N-]=[N+]=NCC(=O)NC1C(O)OC(CO)C(O)C1O (centres unmarked) [ManNAz]", "LpCLS or NmCSS, with or without PmAldolase", "CMP-Sia Yield (%)", ">", 99),
    ("CC(=O)NC[C@H]1OC(O)[C@@H](NC(C)=O)[C@@H](O)[C@@H]1NC(C)=O (some centres unmarked) [Man2,4,6triNAc]", "LpCLS or NmCSS, with or without PmAldolase", "CMP-Sia Yield (%)", "=", 24.1),
    ("O=C(CO)N[C@@H]1C(O)O[C@H](CO)[C@@H](O)[C@@H]1O (some centres unmarked) [ManNGc]", "LpCLS or NmCSS, with or without PmAldolase", "CMP-Sia Yield (%)", ">", 99),
]

====

tested on: MBP-AbGtr18-His6; format: biochemical, A. baumannii K8
This listing pairs molecules with measured Sialoside yield (%) 0.5 h.
READOUT LABEL: Sialoside yield (%) 0.5 h

# MOLECULE, MEASURED NUMBER
rows = [
    ("CC(=O)N[C@H]1[C@H]([C@@H](O)[C@@H](O)CO)O[C@@](O)(C(=O)O)C[C@@H]1O", 47.4),
    ("CC(=O)N[C@H]1[C@@H](O)[C@H](O)[C@@H](CO)O[C@@H]1O", 37.6),
    ("C[C@@H](O)[C@@H](N=[N+]=[N-])[C@@H]1OC(O)(C(=O)O)C[C@H](O)[C@H]1N=[N+]=[N-] (some centres unmarked)", 44.3),
    ("CC(=O)N[C@H]1[C@H](O)[C@H](NC(C)=O)C(O)O[C@@H]1CO (some centres unmarked)", 5.5),
    ("O=C(CO)N[C@@H]1C(O)O[C@H](CO)[C@@H](O)[C@@H]1O (some centres unmarked)", 13),
    ("CC(=O)N[C@@H]1C(O)O[C@H](CO)[C@@H](N=[N+]=[N-])[C@@H]1O (some centres unmarked)", 50.6),
    ("[N-]=[N+]=NCC(=O)NC1C(O)OC(CO)C(O)C1O (centres unmarked)", 57.3),
    ("CC(=O)N[C@@H]1C(O)O[C@H](CN=[N+]=[N-])[C@@H](O)[C@@H]1O (some centres unmarked)", 55.5),
]
